Values from ChEMBL document CHEMBL3988442

// Percent Effect lookup, one value per entry
System: Trypanosoma brucei
Assay: Trypanosoma brucei 72 hour study
Type: functional, organism-based
Set-up: scale not given: in the data most compounds retested in dose-response had high values
Settings: 30.3 µM; […]
The campaign covered roughly 66,000 compounds. About 960 (1.5%) showed an effect of 50% or more. The sample holds strong results, similar compounds and a random draw of the others, so the mix is not that of the screen.
Please reply with the bare figure in % and do not write the unit itself.

Examples from the recorded data:
COCCNC(=O)[C@H]1C[C@@H]2CCN(c3ccccc3)C[C@H]2O1.O=C(O)C(F)(F)F :: -28.03
Cc1occc1C(=O)N1CCCN(Cc2nccn2C(C)C)CC1 :: 53.23
Cc1cnc(N2CCO[C@@H]3CC(COCc4cccnc4)C[C@H]32)nc1.O=C(O)C(F)(F)F.O=C(O)C(F)(F)F (stereo partly drawn) :: -14.97
CCO[C@H]1COC[C@@H]1NC(=O)CCc1nc(-c2ccccc2)no1 :: -3.299
CC(C)CS(=O)(=O)N1C[C@H]2C[C@H](C(=O)N3CCOCC3)[C@@H](C1)O2 :: -39.74

Which Percent Effect is listed for `CO[C@H]1CNC[C@@H]1NC(=O)CCc1nc(-c2ccccc2)no1` ? 14.68

# query: Percent Effect of entry `O=C(C1CCOCC1)N1C[C@H]2C[C@H](OCc3ccccc3)C[C@H]2C1` 32.35

I would be grateful if you could share the reported Percent Effect for CC(C)CNC(=O)N1CCC2(CC1)OC(C(N)=O)Cn1ccnc12.O=C(O)C(F)(F)F (stereo not drawn) . -37.34

Field request: Percent Effect | item: CCN(CC)C1COc2c(cc(Br)c(C)c2C)C1=O (stereo not drawn) -8.815

Give the measured Percent Effect of `CCn1c(CN2CCC(O)(c3ccc4c(c3)OCO4)CC2)cnc1SC.O=C(O)CC(O)(CC(=O)O)C(=O)O` . -5.268

Percent Effect for `CN1CCN(c2ccc(S(N)(=O)=O)cc2C#N)Cc2ccccc21` ? -63.54

Sample `O=C(O)CC(O)(CC(=O)O)C(=O)O.c1cnc2[nH]nc(C3CCN(Cc4ccsc4)CC3)c2c1` — what was its Percent Effect? -1.78

Entry `CC(C)NC(=O)N1CC[C@H]2N(C)CC[C@@]2(C(=O)Nc2cccnc2)CC1` has what Percent Effect? -97.82

Quick one: Percent Effect of `Cc1occc1C(=O)N1CCCN(Cc2nccn2C)CC1` ? 4.115

Param item = `CN(C)CCO[C@@H]1CC[C@H]2[C@H]1OCCN2C(=O)c1ccc(F)cc1.O=C(O)C(F)(F)F` ; retrieve measured Percent Effect. -19.82

State the recorded Percent Effect for this entry: `Cc1cncc(C(=O)N2CCO[C@H]3[C@H](OCCN(C)C)CC[C@@H]32)c1.O=C(O)C(F)(F)F.O=C(O)C(F)(F)F` -21.9
